Every entry's value here was drawn from patent US20040116336A1.

Assayed target: APJ (Homo sapiens, UniProt P35414)
Construct: expressed in transfected cells; host or cells: CHO (CHO-A10; clone 6 for the cAMP assay)
Procedure details: Inhibitory activity on forskolin-stimulated cAMP production in CHO-A10 clone 6 cells
Format: cell-based
Condition info: read-out: EC50
Method: Measurement of an Inhibitory Activity on Forskolin-Stimulated cAMP Production Hanks' balanced salt solution (HBSS) containing 0.2 mM 3-isobutyl-1-methylxanthine (IBMX) and 0.05% bovine serum albumin was prepared as an assay buffer, and each well was washed twice with 500 μl assay buffer and pre-incubated at 37° C. for 30 minutes. […]
Non-standard residues stand in square brackets, D forms with d. Residues, ends and D or L forms follow the SMILES beside them. Cha = N[C@@H](CC1CCCCC1)C(=O)O
Listed compounds paired with reported EC50
State the answer as a number, implicitly in nM.

Compound: CC(C)C[C@H](NC(=O)[C@H](CCCNC(=N)N)NC(=O)[C@@H]1CCCN1C(=O)[C@H](CCCNC(=N)N)NC(=O)[C@H](CCC(N)=O)NC(=O)[C@H](CCCNC(=N)N)NC(=O)[C@@H](N)CCCNC(=N)N)C(=O)N[C@@H](CO)C(=O)N[C@@H](Cc1c[nH]cn1)C(=O)N[C@@H](CCCCN)C(=O)NCC(=O)N1CCC[C@H]1C(=O)N[C@@H](CC1CCCCC1)C(=O)N1CCC[C@H]1C(=O)N[C@@H](Cc1ccc(Cl)cc1)C(=O)O
Assayed target: APJ (Homo sapiens, UniProt P35414)
Result type: EC50
Measurement: 0.53

The compound listed as CSCC[C@H](NC(=O)[C@@H]1CCCN1C(=O)CNC(=O)[C@H](CCCCN)NC(=O)[C@H](CC(C)C)NC(=O)[C@H](CO)NC(=O)[C@H](CC(C)C)NC(=O)[C@H](CCCNC(=N)N)NC(=O)[C@@H]1CCCN1C(=O)[C@H](CCCNC(=N)N)NC(=O)[C@@H]1CCC(=O)N1)C(=O)N1CCC[C@H]1C(=O)N[C@@H](Cc1ccccc1)C(=O)O shows EC50 equal to 0.16

The compound listed as CC(C)C[C@H](NC(=O)[C@H](CCCNC(=N)N)NC(=O)[C@@H]1CCCN1C(=O)[C@@H](N)CCCNC(=N)N)C(=O)N[C@@H](Cc1ccccc1)C(=O)N[C@@H](Cc1c[nH]cn1)C(=O)N[C@@H](CCCCN)C(=O)NCC(=O)N1CCC[C@H]1C(=O)N[C@@H](CC1CCCCC1)C(=O)N1CCC[C@H]1C(=O)N[C@@H](Cc1ccccc1)C(=O)O [Compound in Ex. 15] (H-RPRLFHKGP[Cha]PF-OH; N-terminus and C-terminus assumed) shows EC50 equal to 0.46

====

Assayed target: APJ (Homo sapiens)
Construct: expressed in transfected cells; host or cells: CHO (CHO-A10; clone 6 for the cAMP assay)
Procedure details: Receptor binding assay-2 (compound in Reference Example 2 used)
Condition info: compound in Reference Example 2 used as ligand; read-out: IC50
pIC50: −log10 of the molar value. No end group written: not given here.
Result type: pIC50

P = RPRLSARGPM [Compound in Ex. 27]
Q = RPRLFARGPMPF [Compound in Ex. 31]
R = H-RPRLSARGPMPF-OH [Compound in Ex. 24]
S = RPRLFARGPMF [Compound in Ex. 47]
[ask] Please give the order of these substances when sorted by pIC50, largest value leading. Please list each label once, in the requested order.
[reply] R, P, Q, S
(R: 10.24, P: 9.96, Q: 9.57, S: 8.74)

====

Assayed target: APJ (Homo sapiens, UniProt P35414)
Construct: expressed in transfected cells; host or cells: CHO (CHO-A10; clone 6 for the cAMP assay)
Sequence (P35414 1-380): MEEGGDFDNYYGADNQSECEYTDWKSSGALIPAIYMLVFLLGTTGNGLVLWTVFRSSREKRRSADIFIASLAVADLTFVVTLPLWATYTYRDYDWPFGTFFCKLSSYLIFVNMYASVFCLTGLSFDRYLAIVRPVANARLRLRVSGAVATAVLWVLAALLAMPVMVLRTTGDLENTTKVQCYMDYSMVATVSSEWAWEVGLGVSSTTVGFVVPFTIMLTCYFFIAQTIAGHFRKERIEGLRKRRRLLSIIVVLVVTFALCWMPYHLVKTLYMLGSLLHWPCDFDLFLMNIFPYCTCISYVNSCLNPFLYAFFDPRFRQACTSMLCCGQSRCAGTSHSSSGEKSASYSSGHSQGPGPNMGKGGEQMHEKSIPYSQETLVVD
Procedure details: Receptor binding assay-2 (compound in Reference Example 2 used)
Condition info: compound in Reference Example 2 used as ligand; read-out: IC50
Non-standard residues stand in square brackets, D forms with d. Residues, ends and D or L forms follow the SMILES beside them. Phe(4-Cl) = N[C@@H](Cc1ccc(Cl)cc1)C(=O)O; 2Nal = N[C@@H](Cc1ccc2ccccc2c1)C(=O)O; Lys(Me2) = CN(C)CCCC[C@H](N)C(=O)O; Cha = N[C@@H](CC1CCCCC1)C(=O)O
Result type: pIC50
Kindly note that pIC50 refers to -log10 of the concentration in mol/L and answer with the value alone.

The molecule listed as CSCC[C@H](NC(=O)[C@@H]1CCCN1C(=O)CNC(=O)[C@H](CCCCN)NC(=O)[C@H](Cc1c[nH]cn1)NC(=O)[C@H](CO)NC(=O)[C@H](CC(C)C)NC(=O)[C@H](CCCNC(=N)N)NC(=O)[C@@H]1CCCN1C(=O)[C@@H](N)CCCNC(=N)N)C(=O)N[C@@H](Cc1ccc2ccccc2c1)C(=O)O [Compound in Ex. 40] (H-RPRLSHKGPM[2Nal]-OH) shows pIC50 equal to 9.21

The molecule listed as CSCC[C@H](NC(=O)[C@@H]1CCCN1C(=O)CNC(=O)[C@H](CCCNC(=N)N)NC(=O)[C@H](C)NC(=O)[C@H](CO)NC(=O)[C@H](CC(C)C)NC(=O)[C@H](CCCCN(C)C)NC(=O)[C@@H]1CCCN1C(=O)[C@@H](N)CCCNC(=N)N)C(=O)N1CCC[C@H]1C(=O)N[C@@H](Cc1ccccc1)C(=O)O [Compound in Ex. 63] (H-RP[Lys(Me2)]LSARGPMPF-OH; N-terminus and C-terminus assumed) shows pIC50 equal to 10.13

The molecule listed as CC(C)C[C@H](NC(=O)[C@H](CCCNC(=N)N)NC(=O)[C@@H]1CCCN1C(=O)[C@@H](N)CCCNC(=N)N)C(=O)N[C@@H](Cc1ccccc1)C(=O)N[C@@H](Cc1c[nH]cn1)C(=O)N[C@@H](CCCCN)C(=O)NCC(=O)N1CCC[C@H]1C(=O)N[C@@H](CC1CCCCC1)C(=O)N1CCC[C@H]1C(=O)N[C@@H](Cc1ccc(Cl)cc1)C(=O)O [Compound in Ex. 13] (H-RPRLFHKGP[Cha]P[Phe(4-Cl)]-OH; N-terminus and C-terminus assumed) shows pIC50 equal to 9.54

====

Assayed target: APJ (Homo sapiens, UniProt P35414)
Construct: expressed in transfected cells; host or cells: CHO (CHO-A10; clone 6 for the cAMP assay)
Sequence (P35414 1-380): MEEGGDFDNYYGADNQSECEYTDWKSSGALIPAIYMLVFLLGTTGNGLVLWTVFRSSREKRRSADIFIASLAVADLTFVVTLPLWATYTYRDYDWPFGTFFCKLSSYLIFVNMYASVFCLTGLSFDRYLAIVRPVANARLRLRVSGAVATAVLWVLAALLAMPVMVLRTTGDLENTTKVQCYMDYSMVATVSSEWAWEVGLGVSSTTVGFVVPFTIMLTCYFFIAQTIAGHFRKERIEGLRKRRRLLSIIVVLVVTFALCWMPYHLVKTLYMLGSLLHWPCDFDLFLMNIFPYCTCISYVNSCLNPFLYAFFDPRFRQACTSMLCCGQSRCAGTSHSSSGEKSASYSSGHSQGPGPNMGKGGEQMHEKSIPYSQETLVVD
Procedure details: Inhibitory activity on forskolin-stimulated cAMP production in CHO-A10 clone 6 cells
Format: cell-based
Condition info: read-out: EC50
Non-standard residues stand in square brackets, D forms with d. Residues, ends and D or L forms follow the SMILES beside them. Phe(4-Cl) = N[C@@H](Cc1ccc(Cl)cc1)C(=O)O; Cha = N[C@@H](CC1CCCCC1)C(=O)O; pGlu = O=C1CC[C@@H](C(=O)O)N1
Result type: pEC50
Kindly note that pEC50 refers to -log10 of the concentration in mol/L and answer with the value alone.

# example entries with known answers
Compound: CSCC[C@H](NC(=O)CNC(=O)CNC(=O)[C@H](CCCNC(=N)N)NC(=O)[C@H](C)NC(=O)[C@H](CO)NC(=O)[C@H](CC(C)C)NC(=O)[C@H](CCCNC(=N)N)NC(=O)[C@@H]1CCCN1C(=O)[C@@H](N)CCCNC(=N)N)C(=O)N1CCC[C@H]1C(=O)N[C@@H](Cc1ccc(Cl)cc1)C(=O)O [Compound in Ex. 54] (H-RPRLSARGGMP[Phe(4-Cl)]-OH; N-terminus and C-terminus assumed)
Measurement: 9.72
--
Compound: CC(C)C[C@H](NC(=O)[C@H](CCCNC(=N)N)NC(=O)[C@@H]1CCCN1C(=O)[C@@H](N)CCCNC(=N)N)C(=O)N[C@@H](Cc1ccccc1)C(=O)N[C@@H](C)C(=O)N[C@@H](CCCNC(=N)N)C(=O)NCC(=O)N1CCC[C@H]1C(=O)N[C@@H](CC1CCCCC1)C(=O)N1CCC[C@H]1C(=O)N[C@@H](Cc1ccc(Cl)cc1)C(=O)O [Compound in Ex. 12] (H-RPRLFARGP[Cha]P[Phe(4-Cl)]-OH)
Measurement: 8.92

The compound listed as CSCC[C@H](NC(=O)[C@@H]1CCCN1C(=O)CNC(=O)[C@H](CCCNC(=N)N)NC(=O)[C@H](CCCNC(=N)N)NC(=O)[C@H](Cc1ccccc1)NC(=O)[C@H](CC(C)C)NC(=O)[C@H](CCCNC(=N)N)NC(=O)[C@@H]1CCCN1C(=O)[C@H](CCCNC(=N)N)NC(=O)[C@@H]1CCC(=O)N1)C(=O)N1CCC[C@H]1C(=O)N[C@@H](Cc1ccccc1)C(=O)O [Compound in Ex. 42] ([pGlu]RPRLFRRGPMPF-OH) shows pEC50 equal to 9.82
